The reported numbers originate from paper PMC4349624.

test system: Plasmodium falciparum 3D7 strain; assay: antiplasmodial interaction assay, fixed-ratio combination isobologram method with artemisinin; assay type: cell-based; settings: ratio A:B 4:1, combined with artemisinin (drug A); n = 3
Known Drug B Mean FIC50 ± SE of a selection of compounds

Compound	Drug B Mean FIC50 ± SE
CCOC(=O)c1cn(Cc2cccc(Cl)c2)c2cc(Cl)c(F)cc2c1=O	0.16
CCOC(=O)c1cn(CC#N)c2cc(Cl)c(F)cc2c1=O	0.15
CCn1cc(C(=O)O)c(=O)c2cc(F)c(N3CCNCC3)cc21 [Norfloxacin, norfloxacin, reference compound]	0.45
CCOC(=O)c1cn(Cc2c[nH]nn2)c2cc(Cl)c(F)cc2c1=O	0.15
